// provenance: patent US8664201B2

assay: Sub-acute IV (3-day) toxicity of IPM in mice; format: in vivo; conditions: male mice, IV daily × 3 days
metric: intravenous LD50

Query: Value lookup for intravenous LD50; key = O=P(O)(NCCCl)NCCCl [IPM, isophosphoramide mustard]
Response: 176 mg/kg
